So I've got a bunch of compounds here, and I need their Ki values.
# measured target: SSTR2 (Homo sapiens)
# test summary: SSTR binding affinity by radioligand binding competition assay ([125I]-Tyr11-Somatostatin, membrane extracts)
# conditions: radioligand competition, [125I]-Tyr11-Somatostatin 0.1 nM, membrane extracts; Ki from IC50 by Cheng Prusoff; read-out: SSTR2 Ki
Numbered stars: 1 amine (or outer) side, 2 acyl side, 3 side chain; on linkers, the order of the positions; unused ones are H or OH. Square brackets hold non-standard residues; d marks the D form. Peptide text beside a SMILES is read from it. * marks the point of attachment. DOTA(Lu)NH(CH2)6NHCOCH2 = O=C(CN1CCN2CCN3CCN(CC1)CC(=O)[O][Lu]([O]C(=O)C2)[O]C(=O)C3)NCCCCCCNC(=O)C*; Ala(piperidin-4-yl) = O=C([C@H](CC1CCN([*:3])CC1)N[*:1])[*:2]; dTrp(βS-Me) = C[C@@H](c1c[nH]c2ccccc12)[C@@H](N)C(=O)O; NOTA = O=C(O)CN1CCN(CC(=O)O)CCN(CC(=O)*)CC1; Lys(iPr) = CC(C)NCCCC[C@H](N)C(=O)O; Lys(Me2) = CN(C)CCCC[C@H](N)C(=O)O; NMehCys = CN[C@@H](CCS)C(=O)O; NMeK = CN[C@@H](CCCCN)C(=O)O

Task: Consider the compound C[C@@H](O)[C@@H]1NC(=O)[C@H](CCCCN(C)C)NC(=O)[C@@H](Cc2c[nH]c3ccccc23)NC(=O)[C@H](Cc2ccc(O)cc2)NC(=O)[C@H](CCSCC(=O)NCCCCCCNC(=O)CN2CCN3CCN4CCN(CC2)CC(=O)[O][Lu]([O]C(=O)C3)[O]C(=O)C4)N(C)C(=O)[C@H](Cc2ccccc2)NC1=O [RB-0005801] (cyclo(F[NMehCys](DOTA(Lu)NH(CH2)6NHCOCH2)Y[dW][Lys(Me2)]T)) and give its recorded Ki.
Result: 1 to 3.33 nM

Task: Consider the compound C[C@@H](O)[C@@H]1NC(=O)[C@H](CC2CCNCC2)NC(=O)[C@@H]([C@@H](C)c2c[nH]c3ccccc23)NC(=O)[C@H](Cc2ccc(O)cc2)NC(=O)[C@H](CCCCNC(=O)CN2CCN(CC(=O)O)CCN(CC(=O)O)CC2)N(C)C(=O)[C@H](Cc2ccccc2)NC1=O [RB-0006286] (cyclo([NMeK](NOTA)Y[dTrp(βS-Me)][Ala(piperidin-4-yl)]TF)) and give its recorded Ki.
Result: 1 to 3.33 nM

Task: Consider the compound CC(C)NCCCC[C@@H]1NC(=O)[C@@H]([C@@H](C)c2c[nH]c3ccccc23)NC(=O)[C@H](Cc2ccc(O)cc2)NC(=O)[C@H](CCSCC(=O)NCCCCCCNC(=O)CN2CCN3CCN4CCN(CC2)CC(=O)[O][Lu]([O]C(=O)C3)[O]C(=O)C4)N(C)C(=O)[C@H](Cc2ccccc2)NC(=O)[C@H]([C@@H](C)O)NC1=O [RB-0006011] (cyclo(F[NMehCys](DOTA(Lu)NH(CH2)6NHCOCH2)Y[dTrp(βS-Me)][Lys(iPr)]T)) and give its recorded Ki.
Result: 1 to 3.33 nM

* * *

So I've got a bunch of compounds here, and I need their Ki values.
# measured target: SSTR2 (Homo sapiens, UniProt P30874)
# Sequence (P30874 whole entry): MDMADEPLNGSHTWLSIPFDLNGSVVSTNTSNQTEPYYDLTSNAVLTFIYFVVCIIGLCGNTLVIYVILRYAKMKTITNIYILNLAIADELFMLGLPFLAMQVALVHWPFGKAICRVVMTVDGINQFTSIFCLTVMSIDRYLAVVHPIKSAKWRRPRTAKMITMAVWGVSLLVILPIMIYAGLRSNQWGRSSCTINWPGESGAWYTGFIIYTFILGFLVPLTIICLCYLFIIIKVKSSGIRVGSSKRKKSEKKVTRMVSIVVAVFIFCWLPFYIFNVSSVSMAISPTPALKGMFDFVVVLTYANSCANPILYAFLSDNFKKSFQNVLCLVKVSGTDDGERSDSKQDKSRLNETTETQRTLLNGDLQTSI
# test summary: SSTR binding affinity by radioligand binding competition assay ([125I]-Tyr11-Somatostatin, membrane extracts)
# conditions: radioligand competition, [125I]-Tyr11-Somatostatin 0.1 nM, membrane extracts; Ki from IC50 by Cheng Prusoff; read-out: SSTR2 Ki
Numbered stars: 1 amine (or outer) side, 2 acyl side, 3 side chain; on linkers, the order of the positions; unused ones are H or OH. Square brackets hold non-standard residues; d marks the D form. Peptide text beside a SMILES is read from it. * marks the point of attachment. DOTA(Lu)NH(CH2)6NHCOCH2 = O=C(CN1CCN2CCN3CCN(CC1)CC(=O)[O][Lu]([O]C(=O)C2)[O]C(=O)C3)NCCCCCCNC(=O)C*; Ala(piperidin-4-yl) = O=C([C@H](CC1CCN([*:3])CC1)N[*:1])[*:2]; dTrp(βS-Me) = C[C@@H](c1c[nH]c2ccccc12)[C@@H](N)C(=O)O; dTrp(6-F) = N[C@H](Cc1c[nH]c2cc(F)ccc12)C(=O)O; X20 = CN(C[C@H](N[*:1])C(=O)[*:2])c1ccccc1; NMehCys = CN[C@@H](CCS)C(=O)O

Task: Consider the compound CC(C)[C@@H]1NC(=O)[C@H](CCCCN)NC(=O)[C@@H](Cc2c[nH]c3ccccc23)NC(=O)[C@H](Cc2ccc(O)cc2)NC(=O)[C@H](CCSCC(=O)NCCCCCCNC(=O)CN2CCN3CCN4CCN(CC2)CC(=O)[O][Lu]([O]C(=O)C3)[O]C(=O)C4)N(C)C(=O)[C@H](CN(C)c2ccccc2)NC1=O [RB-0004615] (cyclo(KV[X20][NMehCys](DOTA(Lu)NH(CH2)6NHCOCH2)Y[dW])) and give its recorded Ki.
Result: < 1 nM

Task: Consider the compound C[C@@H]1NC(=O)[C@H]([C@@H](C)O)NC(=O)[C@H](CC2CCNCC2)NC(=O)[C@@H]([C@@H](C)c2c[nH]c3ccccc23)NC(=O)[C@H](Cc2ccc(O)cc2)NC(=O)[C@H](CCSCC(=O)NCCCCCCNC(=O)CN2CCN3CCN4CCN(CC2)CC(=O)[O][Lu]([O]C(=O)C3)[O]C(=O)C4)N(C)C1=O [RB-0005807] (cyclo(A[NMehCys](DOTA(Lu)NH(CH2)6NHCOCH2)Y[dTrp(βS-Me)][Ala(piperidin-4-yl)]T)) and give its recorded Ki.
Result: < 1 nM

Task: Consider the compound C[C@@H](O)[C@@H]1NC(=O)[C@H](CCCCN)NC(=O)[C@@H](Cc2c[nH]c3cc(F)ccc23)NC(=O)[C@H](Cc2ccc(O)cc2)NC(=O)[C@H](CCSCC(=O)NCCCCCCNC(=O)CN2CCN3CCN4CCN(CC2)CC(=O)[O][Lu]([O]C(=O)C3)[O]C(=O)C4)N(C)C(=O)[C@H](Cc2ccccc2)NC1=O [RB-0003309] (cyclo(F[NMehCys](DOTA(Lu)NH(CH2)6NHCOCH2)Y[dTrp(6-F)]KT)) and give its recorded Ki.
Result: < 1 nM
